tested on: IKZF1, ASS1 and SALL4 recruitment to CRBN; assay: Recruitment assessment: recruitment of any tested substrate from among IKZF1, ASS1 and SALL4; format: cell-based; conditions: any tested substrate at any tested compound concentration

| compound | Recruitment Assessment |
| --- | --- |
| O=C1CCC(N2Cc3cc(Nc4ncc5c(n4)COC5)ccc3C2=O)C(=O)N1 (stereo not drawn) [C80380] | TRUE |
| O=C1CCC(N2Cc3cc(-c4ccccc4)ccc3C2=O)C(=O)N1 (stereo not drawn) [C48016] | TRUE |
| N#Cc1ccc(Nc2ccc3c(c2)C(=O)N(C2CCC(=O)NC2=O)C3)nn1 (stereo not drawn) [C80389] | FALSE |

====

target: IKZF1 (isoform 7) recruitment to CRBN (Homo sapiens, UniProt Q96SW2); construct: Full size proteins were fused for each of the target proteins tested, except in the case of IKZF1 where isoform 7 was used; assay: Recruitment Assay (MAPPIT-like): IKZF1 recruitment to CRBN; conditions: HEK293T cells; pSEL-CRBN+pMG1-IKZF1(isoform 7); luciferase 24 hours after treatment; read-out: EC50_IKZF1
Sequence (Q96SW2 whole entry, the tested form may be a part, canonical isoform): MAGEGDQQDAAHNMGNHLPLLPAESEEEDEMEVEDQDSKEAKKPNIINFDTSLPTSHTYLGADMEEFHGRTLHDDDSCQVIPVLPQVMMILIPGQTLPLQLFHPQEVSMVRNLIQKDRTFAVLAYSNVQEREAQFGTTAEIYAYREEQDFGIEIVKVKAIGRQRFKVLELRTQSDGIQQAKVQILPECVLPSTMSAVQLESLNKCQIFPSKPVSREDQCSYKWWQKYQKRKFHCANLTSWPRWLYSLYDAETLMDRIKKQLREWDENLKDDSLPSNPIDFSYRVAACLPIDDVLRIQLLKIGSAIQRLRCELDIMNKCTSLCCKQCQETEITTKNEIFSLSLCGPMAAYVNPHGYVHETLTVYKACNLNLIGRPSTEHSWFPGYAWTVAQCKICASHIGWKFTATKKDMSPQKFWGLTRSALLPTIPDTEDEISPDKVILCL
Sequence (Q13422 1-477 isoform Q13422-7 partner): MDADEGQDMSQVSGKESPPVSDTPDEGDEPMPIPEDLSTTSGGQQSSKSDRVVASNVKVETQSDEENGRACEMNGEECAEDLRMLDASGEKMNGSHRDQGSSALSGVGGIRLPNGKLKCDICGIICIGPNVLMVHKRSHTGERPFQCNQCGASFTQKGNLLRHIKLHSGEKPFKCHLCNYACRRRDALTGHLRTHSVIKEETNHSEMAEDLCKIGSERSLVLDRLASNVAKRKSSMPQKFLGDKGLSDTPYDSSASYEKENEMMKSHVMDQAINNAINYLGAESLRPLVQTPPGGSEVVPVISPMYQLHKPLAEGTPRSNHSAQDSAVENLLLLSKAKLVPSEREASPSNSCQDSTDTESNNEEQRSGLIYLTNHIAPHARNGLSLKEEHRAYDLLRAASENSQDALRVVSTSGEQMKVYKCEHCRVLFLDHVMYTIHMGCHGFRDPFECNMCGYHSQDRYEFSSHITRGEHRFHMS
Sequence (Q16531 whole entry partner, the tested form may be a part, canonical isoform): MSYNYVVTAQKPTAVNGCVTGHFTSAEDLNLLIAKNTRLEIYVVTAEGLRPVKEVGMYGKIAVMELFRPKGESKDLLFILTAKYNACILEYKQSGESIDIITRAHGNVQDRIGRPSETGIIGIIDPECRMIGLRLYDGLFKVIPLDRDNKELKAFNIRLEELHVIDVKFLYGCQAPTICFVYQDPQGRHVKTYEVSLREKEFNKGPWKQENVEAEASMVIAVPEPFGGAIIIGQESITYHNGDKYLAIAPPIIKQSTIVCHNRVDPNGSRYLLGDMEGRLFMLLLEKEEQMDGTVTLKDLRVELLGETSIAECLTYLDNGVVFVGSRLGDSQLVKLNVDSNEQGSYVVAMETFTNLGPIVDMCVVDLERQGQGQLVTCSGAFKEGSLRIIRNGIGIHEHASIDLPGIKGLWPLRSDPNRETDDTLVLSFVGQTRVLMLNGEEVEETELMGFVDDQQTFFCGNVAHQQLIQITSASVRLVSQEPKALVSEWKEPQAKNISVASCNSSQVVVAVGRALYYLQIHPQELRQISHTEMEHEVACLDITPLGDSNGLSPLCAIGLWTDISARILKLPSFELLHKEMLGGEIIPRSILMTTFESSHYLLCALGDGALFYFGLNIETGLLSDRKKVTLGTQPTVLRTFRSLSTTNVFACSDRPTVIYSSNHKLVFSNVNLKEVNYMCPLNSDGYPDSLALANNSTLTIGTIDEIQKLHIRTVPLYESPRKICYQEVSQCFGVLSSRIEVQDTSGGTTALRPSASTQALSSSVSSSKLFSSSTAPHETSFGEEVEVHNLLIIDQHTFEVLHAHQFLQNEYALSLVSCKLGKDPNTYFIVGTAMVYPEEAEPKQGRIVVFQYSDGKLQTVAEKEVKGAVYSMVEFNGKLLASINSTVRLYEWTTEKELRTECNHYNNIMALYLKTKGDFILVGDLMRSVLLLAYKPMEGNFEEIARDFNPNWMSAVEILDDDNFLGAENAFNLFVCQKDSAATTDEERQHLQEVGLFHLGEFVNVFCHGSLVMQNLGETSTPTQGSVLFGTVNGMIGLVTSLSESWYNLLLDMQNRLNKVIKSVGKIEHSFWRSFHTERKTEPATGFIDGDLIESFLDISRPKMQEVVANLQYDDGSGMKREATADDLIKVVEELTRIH
assay endpoint: EC50 (nM)
// note: answer is a bare numeric in nM

Would you please look over these solved cases?
| molecule | system tested | EC50 (nM) |
| --- | --- | --- |
| CS(=O)(=O)Nc1cccc2c1CN(C1CCC(=O)NC1=O)C2=O (stereo not shown) | IKZF1 (isoform 7) recruitment to CRBN (Homo sapiens, UniProt Q96SW2) | 494 |
| O=C(CNc1ccc2c(c1)CN(C1CCC(=O)NC1=O)C2=O)NCc1ccccc1 (stereo not shown) | IKZF1 (isoform 7) recruitment to CRBN (Homo sapiens, UniProt Q96SW2) | 1150 |

In the following, a different molecule is considered.
Suppose we examine the molecule Cc1cccc2c1CN(C1CCC(=O)NC1=O)C2=O (stereo not shown) ; what EC50 value has been reported?
77.4

====

# EC50 values compiled below
molecular target: IKZF1 (isoform 7) recruitment to CRBN (Homo sapiens); construct: Full size proteins were fused for each of the target proteins tested, except in the case of IKZF1 where isoform 7 was used; test: Recruitment Assay (MAPPIT-like): IKZF1 recruitment to CRBN; conditions: HEK293T cells; pSEL-CRBN+pMG1-IKZF1(isoform 7); luciferase 24 hours after treatment; read-out: EC50_IKZF1
// note: answer is a bare numeric in µM

Would you please look over these solved cases?
| compound | system tested | assay endpoint | observed value |
| --- | --- | --- | --- |
| O=C1CCC(N2Cc3c(cccc3-c3ccccc3)C2=O)C(=O)N1 (stereo not drawn) [C48014] | IKZF1 (isoform 7) recruitment to CRBN (Homo sapiens) | EC50 | 1.24 |
| O=C1CCCC(N2Cc3c(cccc3[N+](=O)[O-])C2=O)C(=O)N1 (stereo not drawn) [C29737] | IKZF1 (isoform 7) recruitment to CRBN (Homo sapiens) | EC50 | 1.41 |

In the following, a different compound is considered.
Suppose we examine the compound CN(C)c1ccc2c(c1)CN(C1CCC(=O)NC1=O)C2=O (stereo not drawn) [C98103] ; what EC50 value has been reported?
1.29

====

# pEC50 values compiled below
molecular target: SALL4 recruitment to CRBN (Homo sapiens); construct: Full size proteins were fused for each of the target proteins tested, except in the case of IKZF1 where isoform 7 was used; assay: Recruitment Assay (MAPPIT-like): SALL4 recruitment to CRBN; settings: HEK293T cells; pSEL-SALL4+pMG1-CRBN; luciferase 24 hours after treatment; read-out: EC50_SALL4
Sequence (Q96SW2 whole entry, the tested form may be a part, canonical isoform): as the sequence (Q96SW2 whole entry, the tested form may be a part, canonical isoform) above
Sequence (Q9UJQ4 whole entry partner, the tested form may be a part, canonical isoform): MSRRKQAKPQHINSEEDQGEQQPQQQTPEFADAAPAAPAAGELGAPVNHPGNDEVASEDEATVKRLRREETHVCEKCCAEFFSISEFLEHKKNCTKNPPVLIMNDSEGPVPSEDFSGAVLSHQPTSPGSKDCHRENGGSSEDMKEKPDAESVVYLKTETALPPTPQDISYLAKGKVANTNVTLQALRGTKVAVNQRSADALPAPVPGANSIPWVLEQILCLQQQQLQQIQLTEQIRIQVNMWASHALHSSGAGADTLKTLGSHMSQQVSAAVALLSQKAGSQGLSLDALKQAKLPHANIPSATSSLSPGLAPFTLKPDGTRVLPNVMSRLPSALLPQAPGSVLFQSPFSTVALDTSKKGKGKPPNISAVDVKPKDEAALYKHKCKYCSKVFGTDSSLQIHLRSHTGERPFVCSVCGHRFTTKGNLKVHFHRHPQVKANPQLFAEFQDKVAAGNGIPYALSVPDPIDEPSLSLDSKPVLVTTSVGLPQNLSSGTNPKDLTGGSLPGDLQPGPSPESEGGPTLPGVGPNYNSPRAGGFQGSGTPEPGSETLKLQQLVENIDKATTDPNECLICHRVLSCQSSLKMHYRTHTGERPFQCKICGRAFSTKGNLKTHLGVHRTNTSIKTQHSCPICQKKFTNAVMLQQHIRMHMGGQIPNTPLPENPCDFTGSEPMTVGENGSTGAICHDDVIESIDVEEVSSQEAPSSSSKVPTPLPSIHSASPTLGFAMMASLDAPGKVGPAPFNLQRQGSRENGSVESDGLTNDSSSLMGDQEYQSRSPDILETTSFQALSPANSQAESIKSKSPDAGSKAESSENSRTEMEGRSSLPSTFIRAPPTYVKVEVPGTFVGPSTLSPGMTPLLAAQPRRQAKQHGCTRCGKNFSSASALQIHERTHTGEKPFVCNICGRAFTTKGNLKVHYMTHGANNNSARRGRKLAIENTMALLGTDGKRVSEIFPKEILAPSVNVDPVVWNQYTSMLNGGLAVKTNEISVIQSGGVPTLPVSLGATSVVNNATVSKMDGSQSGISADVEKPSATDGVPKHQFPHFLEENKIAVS
Sequence (Q16531 whole entry partner, the tested form may be a part, canonical isoform): as the sequence (Q16531 whole entry partner, the tested form may be a part, canonical isoform) above
A value of pEC50 is the negative decimal logarithm of a concentration given in moles per litre.

Would you please look over these solved cases?
| molecule | assay endpoint | observed value |
| --- | --- | --- |
| O=C1CCC(N2Cc3c(cccc3-c3ccccc3)C2=O)C(=O)N1 (stereo not drawn) | pEC50 | 7.21 |
| O=C(O)CN1CCN(Cc2ccc(COc3cccc4c3CN(C3CCC(=O)NC3=O)C4=O)cc2)CC1.O=CO (stereo not drawn) | pEC50 | 6.10 |
| Cc1ccc2c(c1)C(=O)N(C1CCC(=O)NC1=O)C2 (stereo not drawn) | pEC50 | 6.57 |
| N#CC1c2ccccc2C(=O)N1C1CCC(=O)NC1=O (stereo not drawn) | pEC50 | 6.06 |
| N#Cc1ccc2c(c1)C(=O)N(C1CCC(=O)NC1=O)C2 (stereo not drawn) | pEC50 | 6.37 |

Suppose we examine the molecule O=C1CCC(N2Cc3ccc(Nc4ncc5c(n4)COC5)cc3C2=O)C(=O)N1 (stereo not drawn) ; what pEC50 value has been reported?
6.82
